A collection of compounds and their measured melting point

Example entries and their recorded answers appear below.
# COMPOUND, melting point
measured = [
    ("Cc1cc(C)cc(CC(NC2=NCCS2)c2cccc3c2CCC3)c1 (stereo not shown)", "120 to 124 °C"),
    ("Cc1cc(C)cc(CC(NC2=NCCS2)c2cccc3c2CCCC3)c1 (stereo not shown)", "139 to 141 °C"),
    ("Cc1cc(C)cc(CC(NC2=NCCS2)c2cccc3cccnc23)c1 (stereo not shown)", "95 to 96 °C"),
]

Then this compound:
# input Which value of melting point has been reported for Cc1cc(C)cc(CC(NC2=NCCS2)c2cccc3c2C(C)(C)C(=O)N3C)c1 (stereo not shown) in the records?
# output 270 to 272 °C
